target: Cholinesterase (Homo sapiens); assay: Inhibition of human plasma BChE after 20 mins by Ellman's method
Sequence (P06276 whole entry): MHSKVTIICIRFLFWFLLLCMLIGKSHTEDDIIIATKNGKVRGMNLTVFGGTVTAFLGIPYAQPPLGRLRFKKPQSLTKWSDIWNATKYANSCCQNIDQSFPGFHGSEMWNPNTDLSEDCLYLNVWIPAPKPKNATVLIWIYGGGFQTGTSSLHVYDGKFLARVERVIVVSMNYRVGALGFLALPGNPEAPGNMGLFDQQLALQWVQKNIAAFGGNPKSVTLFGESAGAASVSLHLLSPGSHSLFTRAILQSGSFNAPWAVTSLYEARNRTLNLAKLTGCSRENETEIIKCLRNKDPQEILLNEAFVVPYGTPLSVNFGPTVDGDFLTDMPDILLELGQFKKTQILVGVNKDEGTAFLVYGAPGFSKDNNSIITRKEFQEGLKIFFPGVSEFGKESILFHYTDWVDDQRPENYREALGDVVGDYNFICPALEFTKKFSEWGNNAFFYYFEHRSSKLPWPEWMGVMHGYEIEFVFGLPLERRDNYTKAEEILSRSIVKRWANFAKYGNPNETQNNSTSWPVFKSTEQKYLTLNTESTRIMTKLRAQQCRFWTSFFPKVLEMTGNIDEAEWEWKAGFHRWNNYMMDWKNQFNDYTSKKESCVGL
# IC50 per record follows
Value expressed in µM; do not type the unit.

{"columns": ["COMPOUND", "UOM", "IC50"],
 "data": [
  ["COc1ccc2c(c1)C1(CC=C(C)C)CCN(Cc3ccccc3)C1N2CC=C(C)C (stereo not given)", "µM", 50],
  ["CN1CCC2(Cc3ccccc3)c3ccccc3N(Cc3ccccc3)C12 (stereo not given)", "µM", 22.1],
  ["CC(C)=CCN1c2ccccc2[C@]2(CC=C(C)C)CCN(C)[C@H]12 [(-)-DEBROMOFLUSTRAMINE B]", "µM", 1.37],
  ["COc1ccc2c(c1)C1(Cc3ccccc3)CCN(C)C1N2Cc1ccccc1 (stereo not given)", "µM", 5.89]
]}

Here's the next entry for you.
Task: Report IC50 for COc1ccc2c(c1)C1(CC=C(C)C)CCN(C)C1N2CC=C(C)C (stereo not given)
Output: 4.59
